System: IL-1β production from human peripheral blood mononuclear cells (PBMC)
Assay: IL-1β production from human PBMC, Cytometric Bead Array
Type: cell-based
Details: LPS 0.6 ng/ml; test compound 1 μg/ml; Table 18
Procedure: Peripheral blood was drawn from healthy volunteers (with approval from the relevant ethical committee in Denmark). Heparinized blood was diluted 1/1 v/v with RPMI and were subjected to Ficoll density centrifugation within 2 h of drawing. […] Viability was measured by Alamar Blue (Biosource, DALL 1100) in all experiments and in some cases also by MTS (Promega) according to manufacturer's instruction and was in some experiments also judged by counting of the cells by a Nucleocounter. […]
Where no end group is shown, it is not given here.
Readout: IL-1β (pg/mL)
Use pg/mL as the unit, but write only the number.

Look over these answered cases.
hBD1: human beta defensin 1, SEQ ID NO:1; prepared using chemical synthesis, Peptide Institute Inc. (DHYNCVSSGGQCLYSACPIFTKIQGTCYRGKAKCCK; ends and bridges not checked; cysteine pairing not given here; listed as Homo sapiens) | 512
hBD3: human beta defensin 3, SEQ ID NO:3; prepared using chemical synthesis, Peptide Institute Inc. (GIINTLQKYYCRVRGGRCAVLSCLPKEEQTGKCSTRGRKCCRRKK; ends and bridges not checked; cysteine pairing not given here; listed as Homo sapiens) | 331
rhBD2: recombinant hBD2, which is identical to hBD2 as used in Example 1 (GIGDPVTCLKSGAICHPVFCPRRYKQIGTCGLPGTKCCKKP; not fully specified; ends and bridges not checked; UniProt O15263 24-64, looked up) | 284

The record that follows has no IL-1β shown yet.
## Input IL-1β for hBD4 variant: consists of amino acids 3-39 of hBD4, SEQ ID NO:5; prepared using chemical synthesis (ELDRICGYGTARCRKKCRSQEYRIGRCPNTYACCLRK; hBD-4 variant consisting of amino acids 3-39 of SEQ ID NO4) ?
## Output 286
